# Target under test: Protein RecA (Mycobacterium tuberculosis, UniProt P9WHJ3)
# Test: Fluorescence Cell-Free Homogeneous Dose Retest to Identify Inhibitors of RecA-Intein Splicing Activity. [Related pubchem assays (depositor defined):AID2097, AID2223, AID489010, AID492950]
# Type: functional
Calls of active or inactive are those of the source.
Reported EC50 is given for each of the following compounds.

Compound: Oc1nc(Nc2ccccc2)cc2ccccc12
EC50: 1.9 µM (active)

Compound: Cc1c(-c2nn(C)c(=O)c3ccccc23)oc2ccc(F)cc2c1=O
EC50: 2.51 µM (active)

Compound: COc1ccc(S(=O)(=O)/N=C2\C=C(NS(=O)(=O)c3ccccc3)C(=O)c3ccccc32)cc1
EC50: 1.58 µM (active)

Compound: COC(=O)CC1=NN(c2ccccc2)C(=O)C1
EC50: 4.42 µM (active)

Compound: CC(C)(c1ccccc1)c1ccc(OCC2CO2)cc1 (configuration not stated)
EC50: 11.9 µM (active)

Query block: Quick one: EC50 for CCCCCCCCCCOC(=O)C[n+]1c(COc2ccccc2C)n(C)c2ccccc21 ?
Result block: 7.26 µM (active)

Query block: // lookup EC50 for O=C1NC(=O)N(Cc2ccc(F)cc2)C(=O)/C1=C/NNC(=O)c1ccccc1O
Result block: 21.9 µM (active)

---

Known AC50 of a selection of compounds
# Target under test: Cytochrome P450 2D6 (Homo sapiens, UniProt P10635)
# Sequence (P10635 whole entry): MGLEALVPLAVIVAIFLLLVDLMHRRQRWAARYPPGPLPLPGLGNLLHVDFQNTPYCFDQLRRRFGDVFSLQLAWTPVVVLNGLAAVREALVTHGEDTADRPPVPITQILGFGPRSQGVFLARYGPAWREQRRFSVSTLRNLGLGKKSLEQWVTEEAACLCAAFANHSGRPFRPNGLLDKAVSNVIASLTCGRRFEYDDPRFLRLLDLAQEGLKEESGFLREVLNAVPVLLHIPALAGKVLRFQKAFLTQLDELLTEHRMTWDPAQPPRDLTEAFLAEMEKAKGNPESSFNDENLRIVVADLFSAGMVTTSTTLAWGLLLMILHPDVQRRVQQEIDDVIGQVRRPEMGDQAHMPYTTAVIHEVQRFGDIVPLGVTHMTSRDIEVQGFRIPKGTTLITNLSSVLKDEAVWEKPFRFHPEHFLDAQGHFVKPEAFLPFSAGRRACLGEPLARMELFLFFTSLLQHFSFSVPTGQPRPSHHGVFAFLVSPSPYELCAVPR
# Test: qHTS Assay for Inhibitors and Substrates of Cytochrome P450 2D6. [Related pubchem assays: 410 ]
# Type: ADME
# Study conditions: read-out: Potency

Line notation: c1ccc(Nc2cc(-c3ccoc3)ncn2)cc1
AC50: 20 µM (inconclusive)
//
Line notation: C=C1C(=O)O[C@H]2C[C@@]3(C)CCCC(=C)[C@@H]3C[C@H]12
AC50: 10 µM (inconclusive)
//
Line notation: C=CC1=C(C)C2=NC/1=C\C1=[N+]3[Zn-2][N+]4=C(/C=C5N=C(/C=C3/C(CCC(=O)O)=C1C)C(CCC(=O)O)=C\5C)C(C)=C(C=C)/C4=C/2
AC50: 25.1 µM (inconclusive)

Next:
Query block: Tell me the measured AC50 of O=c1c(O)c(-c2ccc(O)c(O)c2)oc2ccccc12 , please.
Result block: 31.6 µM (inconclusive)

---

Reported IC50 values are given for each entry in this list.
# Target under test: Bcl-2-related protein A1 (Mus musculus, UniProt Q07440)
# Sequence (Q07440 whole entry): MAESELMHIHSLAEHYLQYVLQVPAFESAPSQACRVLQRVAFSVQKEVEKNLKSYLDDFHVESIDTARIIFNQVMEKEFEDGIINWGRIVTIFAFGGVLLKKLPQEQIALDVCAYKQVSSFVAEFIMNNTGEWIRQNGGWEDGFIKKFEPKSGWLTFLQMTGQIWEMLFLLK
# Test: Bfl-1 inhibitors blocking BH3 peptide binding, confirmation, biochemical, TR-FRET, mouse Bfl-1 (AID 621);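 note: TR-FRET binding of GST-Bfl-1 to FITC-labelled Bid peptide via terbium antibody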
Calls of active or inactive are those of the source.

As a guide, the following entries are already answered.
Line notation: O=C1C(Cl)=C(Cl)C(=O)N1c1ccc(C(F)(F)F)cc1
Target under test: Bcl-2-related protein A1 (Mus musculus, UniProt Q07440)
Measured: 1.46 µM (active)
--
Line notation: Oc1nc(Nc2ccccc2)cc2ccccc12
Target under test: Bcl-2-related protein A1 (Mus musculus, UniProt Q07440)
Measured: > 100 µM (not active)
--
Line notation: Clc1ccc(-n2nnc(-c3cccnc3)n2)cn1
Target under test: Bcl-2-related protein A1 (Mus musculus, UniProt Q07440)
Measured: > 100 µM (not active)
--
Line notation: COc1ccc2nc(O)c(-c3nnn(-c4ccc(F)cc4)n3)cc2c1
Target under test: Bcl-2-related protein A1 (Mus musculus, UniProt Q07440)
Measured: > 100 µM (not active)

Field: next molecule
Query block: # IC50 lookup, item O=C1C(Cl)=C(N2CCOCC2)C(=O)N1c1cc(Cl)cc(Cl)c1
Result block: 1.33 µM (active)
